Tested target: 6xHis-TLX ligand-binding domain, Q9Y466
Sequence (Q9Y466 155-385): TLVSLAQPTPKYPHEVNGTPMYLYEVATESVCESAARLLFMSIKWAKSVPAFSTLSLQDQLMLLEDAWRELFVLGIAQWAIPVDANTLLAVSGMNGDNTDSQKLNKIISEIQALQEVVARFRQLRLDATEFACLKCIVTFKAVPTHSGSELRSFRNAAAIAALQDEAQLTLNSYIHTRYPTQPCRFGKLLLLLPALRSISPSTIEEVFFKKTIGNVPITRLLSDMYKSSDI
Experimental details: BLI; 6xHis-TLX LBD on Ni-NTA biosensors, Octet Red 96; atrophin peptide in solution
Assay readout: pKd
pKd is defined as minus the log10 of a concentration measured in mol/L.

Documented pKd of PPYADTPALRQLSEYARPHVAFSP (modifications not checked) [atrophin corepressor peptide (untagged)] : 4.85
